Each entry below lists one item and its recorded IC50 value.
# target: AmpC (Pseudomonas aeruginosa)
# Construct: AmpC, TEM-1, KPC-2 or OXA-2 domain excluding signal peptide was amplified with PCR; made in house; host or cells: Escherichia coli BL21 (DE3), pET-28b(+)
# Sequence (P24735 27-397): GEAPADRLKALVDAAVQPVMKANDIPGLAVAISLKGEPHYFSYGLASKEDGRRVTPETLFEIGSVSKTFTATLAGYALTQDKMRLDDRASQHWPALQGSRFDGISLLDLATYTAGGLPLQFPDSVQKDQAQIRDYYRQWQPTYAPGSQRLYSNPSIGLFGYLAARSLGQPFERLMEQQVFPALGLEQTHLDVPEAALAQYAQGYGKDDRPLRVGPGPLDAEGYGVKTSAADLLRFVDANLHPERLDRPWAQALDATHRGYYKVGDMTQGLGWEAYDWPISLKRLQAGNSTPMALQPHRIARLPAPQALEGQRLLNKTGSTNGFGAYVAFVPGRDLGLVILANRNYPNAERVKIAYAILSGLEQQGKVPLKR
# procedureDetails: biochemical

compound="NCc1ccc(C(=O)NNC(=O)[C@@H]2CC[C@@H]3CN2C(=O)N3OS(=O)(=O)O)cc1 (racemic)" assayresult="< 100 nM"

// below: IC50 requested for another compound
Query block: # get_value(readout='IC50', item= "CNCCONC(=O)[C@@H]1CC[C@@H]2CN1C(=O)N2OS(=O)(=O)O" )
Result block: 100 to 1000 nM

###

# target: OXA-2 (Escherichia coli)
# Construct: AmpC, TEM-1, KPC-2 or OXA-2 domain excluding signal peptide was amplified with PCR; made in house; host or cells: Escherichia coli BL21 (DE3), pET-28b(+)
# Sequence (P0A1V9 22-275): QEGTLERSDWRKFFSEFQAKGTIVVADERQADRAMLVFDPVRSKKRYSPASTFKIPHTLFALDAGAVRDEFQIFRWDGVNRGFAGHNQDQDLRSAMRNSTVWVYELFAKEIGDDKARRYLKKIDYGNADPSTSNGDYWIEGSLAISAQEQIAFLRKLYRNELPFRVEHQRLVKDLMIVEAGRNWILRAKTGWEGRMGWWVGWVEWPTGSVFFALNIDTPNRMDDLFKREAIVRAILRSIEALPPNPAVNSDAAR
# procedureDetails: biochemical
# Set-up: species or system P. aeruginosa
# condition: OXA-2 2 nM, 100 μM nitrocefin, pre-incubation 30° C. 10 minutes; read-out: β-Lactamase inhibitory activity OXA-2 (IC50)
pIC50: −log10 of the molar value.
observationType: pIC50

Answered examples (3):
molecule="O=C(NC1CCNCC1)[C@@H]1CC[C@@H]2CN1C(=O)N2OS(=O)(=O)O [MK-7655, reference compound]" assayresult="6.00 to 7.00"
molecule="O=C(NOC[C@@H]1CCCN1)[C@@H]1CC[C@@H]2CN1C(=O)N2OS(=O)(=O)O [Example 76]" assayresult="6.00 to 7.00"
molecule="O=C(NOC[C@@H]1CCN1)[C@@H]1CC[C@@H]2CN1C(=O)N2OS(=O)(=O)O [Example 75]" assayresult="5.52 to 6.00"

Query block: // lookup pIC50 for O=C(NO[C@@H]1CCNC1)[C@@H]1CC[C@@H]2CN1C(=O)N2OS(=O)(=O)O [Example 80]
Result block: 6.00 to 7.00

Query block: Also, NCCCONC(=O)[C@@H]1CC[C@@H]2CN1C(=O)N2OS(=O)(=O)O [Example 69] please.
Result block: 6.00 to 7.00

Query block: Can you check O=C(NOC[C@H]1CCCN1)[C@@H]1CC[C@@H]2CN1C(=O)N2OS(=O)(=O)O [Example 77] next?
Result block: 6.00 to 7.00

Query block: Please do the same for O=C(NO[C@H]1CCNC1)[C@@H]1CC[C@@H]2CN1C(=O)N2OS(=O)(=O)O [Example 81] as well.
Result block: 5.52 to 6.00

###

# target: AmpC (Pseudomonas aeruginosa)
# Construct: AmpC, TEM-1, KPC-2 or OXA-2 domain excluding signal peptide was amplified with PCR
# procedureDetails: biochemical
observationType: IC50

Record excerpt, results attached:
compound=O=C(NNC(=O)[C@@H]1CC[C@@H]2CN1C(=O)N2OS(=O)(=O)O)c1ccco1 target="AmpC (Pseudomonas aeruginosa)" assayresult="0.1 to 1 µM"
compound=O=C(NOC1CNC1)[C@@H]1CC[C@@H]2CN1C(=O)N2OS(=O)(=O)O target="AmpC (Pseudomonas aeruginosa)" assayresult="0.1 to 1 µM"
compound="CNNC(=O)[C@@H]1CC[C@@H]2CN1C(=O)N2OS(=O)(=O)O (racemic)" target="AmpC (Pseudomonas aeruginosa)" assayresult="0.1 to 1 µM"

// below: IC50 requested for another compound
Query block: Which IC50 is listed for "O=C(NNC(=O)N1CCOCC1)[C@@H]1CC[C@@H]2CN1C(=O)N2OS(=O)(=O)O" ?
Result block: < 0.1 µM

Origin of the recorded values: patent US10556905B2
